System Under Test: GABARAP K24Q (recombinant, BLI) (human, UniProt O95166 1-117, K24Q)
Measurement Notes: BLI
Ends that are not written are not given here.
Parameter Measured: Kd (nM)
Your answer should be a plain number; it is taken to be in nM.

Specify Kd for SKDSSCDTDDFVMVPAQFPGDLVA (also: biotin, position not given here) [ULK1 LIR peptide (biotinylated, BLI)] and stop. 420
